# key: entry, value: MFI
# system-tested: T1, human TMEM106B (human, UniProt Q9NUM4 2-274)
# T1 construct: full-length, transiently expressed on HEK293 cells, or natively expressed on HeLa, U251 and A549 cells (the cell is named under assay); also the source of the Pepscan peptides; also called huTMEM106B; huTMEM
# method-description: FACS A549 1 ug/ml
Respond with the bare value in MFI.

These solved cases illustrate the format of a correct answer.
{"binder": "TM-30 (antibody, V domains shown, mouse IgG (hybridoma)) VH: QVQLQQSGPELVKPGASVKLSCKASDNTFTNYDVNWVRQRPGQGLEWIGWIYPRDGTTIYNEKFKGRATLTVDTSSSTAYMELHSLTSEDSAVFFCARTLPQAMDYWGQGTSVTVSS VL: DVLMTQSPLSLPVSLGDQVSISCRSSQTIVHRNGNTYLEWYLQKPGQSPKLLIYKVSNRFSGVPDRFSGSGSGTDFTLKISRVEAEDLGVYYCFQGSHLPWTFGGGTKLEIK", "MFI [MFI]": 3030}
{"binder": "TM-8 (antibody, V domains shown, mouse IgG (hybridoma)) VH: QIQLVQSGPELKKPGETVKISCKASGYTFTDYPMHWVKQAPGKGFKWMGVIYTDTGEPKYAEVFKGRFAFSLETSASTAYLQINNLKNEDTATYFCVRRLAYWGQGTLVTVSA VL: DIKMTQSPSSMYASLGERVTITCKASQDINSYLSWFQQKPGKSPKTLIFRANRLVDGVPSRFSGSGSGQDYSLTISSLEYEDMGIYYCLQYDEFPLTFGAGTKLEMK", "MFI [MFI]": 393}

Let's switch to this binder now.
For the binder shown here, TM-45 (antibody, V domains shown) VH: QVQLQQSGAELAKPGASVKLSCKASGYTFTNYWMHWVKKRPGQGLEWIGYINPSSGYTKYNQKFKDKATLTADKSSNTAYMQLSSLTYEDSAVYYCTREGGSISDWYFDVWGTGTTVTVSS VL: DIVMTQAAPSLPVTPGESVSISCRSSKSLLHSNGNTYLYWFLQRPGQSPQLLIYRMSNLASGVPDRFSGSGSGTAFTLRISRVEAEDVGVYYCMQHLEYPYTFGGGTKLEIK , give the reported MFI.
1860
